Readings of GI50 for the listed compounds
Biological target: Ba/F3 cell EGFR L858R/T790M (Homo sapiens, UniProt P00533, L858R/T790M)
Construct: expressed in transfected cells; host or cells: Ba/F3
Sequence (P00533 25-1210 T790M/L858R): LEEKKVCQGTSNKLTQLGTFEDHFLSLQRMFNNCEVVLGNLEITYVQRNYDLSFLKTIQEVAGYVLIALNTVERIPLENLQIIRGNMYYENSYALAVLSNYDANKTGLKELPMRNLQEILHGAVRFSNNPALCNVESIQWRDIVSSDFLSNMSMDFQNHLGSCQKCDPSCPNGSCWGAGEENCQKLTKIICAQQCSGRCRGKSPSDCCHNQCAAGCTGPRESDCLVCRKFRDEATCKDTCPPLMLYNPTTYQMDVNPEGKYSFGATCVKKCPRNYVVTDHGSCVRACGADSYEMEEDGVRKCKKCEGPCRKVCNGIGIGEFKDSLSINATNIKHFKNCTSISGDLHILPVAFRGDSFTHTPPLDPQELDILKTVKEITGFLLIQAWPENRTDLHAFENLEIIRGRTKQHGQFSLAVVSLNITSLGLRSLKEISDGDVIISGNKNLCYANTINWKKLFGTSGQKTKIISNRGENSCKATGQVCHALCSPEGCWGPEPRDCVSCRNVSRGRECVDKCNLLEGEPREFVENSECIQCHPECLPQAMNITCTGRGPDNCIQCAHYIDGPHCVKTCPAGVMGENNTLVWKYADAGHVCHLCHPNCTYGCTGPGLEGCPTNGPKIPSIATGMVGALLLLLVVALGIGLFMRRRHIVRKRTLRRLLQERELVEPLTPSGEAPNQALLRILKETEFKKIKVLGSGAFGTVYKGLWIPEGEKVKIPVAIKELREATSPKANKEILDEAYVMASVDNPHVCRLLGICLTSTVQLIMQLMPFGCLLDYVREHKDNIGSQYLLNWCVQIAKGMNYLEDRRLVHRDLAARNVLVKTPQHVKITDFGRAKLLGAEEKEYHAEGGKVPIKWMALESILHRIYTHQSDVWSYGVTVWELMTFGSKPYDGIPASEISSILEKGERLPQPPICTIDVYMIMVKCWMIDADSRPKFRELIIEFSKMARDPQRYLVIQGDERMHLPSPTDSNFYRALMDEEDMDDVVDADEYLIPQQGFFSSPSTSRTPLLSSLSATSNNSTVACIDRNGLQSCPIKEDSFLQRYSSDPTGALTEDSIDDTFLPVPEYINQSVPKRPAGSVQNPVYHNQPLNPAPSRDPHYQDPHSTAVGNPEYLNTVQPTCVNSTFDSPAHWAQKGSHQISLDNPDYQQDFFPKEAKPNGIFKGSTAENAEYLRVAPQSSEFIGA
Test: Ba/F3 cell proliferation suppression, EGFR L858R/T790M
Assay type: cell-based
Details: 72 hours after treatment, CellTiter-Glo

structure.string	observable	value.reported
C=CC(=O)Nc1cc(Nc2cc(N3OCC[C@@H]3c3ccccc3)ncn2)c(OC)cc1N1CCC(N(C)C)CC1	GI50	< 0.05 µM
C=CC(=O)Nc1cc(Nc2cc(N3OCC[C@@H]3c3cc(F)cc(F)c3)ncn2)c(OC)cc1N1CCN(CC)CC1	GI50	< 0.05 µM
C=CC(=O)Nc1cc(Nc2cc(N3OCC[C@@H]3c3cc(F)cc(F)c3)ncn2)c(OC)cc1N1CCC(N2C[C@H]3C[C@@H]2CO3)CC1	GI50	< 0.05 µM
C=CC(=O)Nc1cc(Nc2cc(N3OCC[C@@H]3c3cc(F)cc(F)c3)ncn2)c(OC)cc1N1CCC(N2C3CC2CN(CC)C3)CC1	GI50	< 0.05 µM
C=CC(=O)Nc1cc(Nc2cc(N3OCC[C@@H]3c3ccccc3)ncn2)c(OC)cc1N1CC[C@@H](N(C)C)C1	GI50	< 0.05 µM
C=CC(=O)Nc1cc(Nc2cc(N3OCC[C@@H]3c3ccccc3)ncn2)ccc1N1CCN(C)CC1	GI50	< 0.05 µM
C=CC(=O)Nc1cc(Nc2cc(N3OCC[C@@H]3c3cc(F)cc(F)c3)ncn2)c(OC)cc1N1CCC(N2CC[C@H](N(C)C)C2)CC1	GI50	< 0.05 µM
C=CC(=O)Nc1cc(Nc2cc(N3OCC[C@@H]3c3ccccc3)ncn2)c(OC)cc1N1CCN(CC)CC1	GI50	< 0.05 µM
C=CC(=O)Nc1cc(Nc2cc(N3OCC[C@H]3c3ccccc3)ncn2)c(OC)cc1N1CCOCC1	GI50	0.5 to 5 µM
C=CC(=O)Nc1cc(Nc2cc(N3OCC[C@H]3c3ccccc3)ncn2)c(OC)cc1N(C)CCN(C)C	GI50	0.05 to 0.5 µM

Request: Query for Ba/F3 cell EGFR L858R/T790M (Homo sapiens, UniProt P00533, L858R/T790M): what GI50 does the record show for `C=CC(=O)Nc1cc(Nc2cc(N3OCC[C@@H]3c3ccccc3)ncn2)c(OC)cc1N1CCOCC1` ?
Result: 0.05 to 0.5 µM

Request: Likewise for `C=CC(=O)Nc1cc(Nc2cc(N3OCC[C@@H]3c3cc(F)cc(F)c3)ncn2)c(OC)cc1N1CCC(N2CCN(CC)CC2)CC1` ?
Result: < 0.05 µM

Request: Likewise for `C=CC(=O)Nc1cc(Nc2cc(N3OCC[C@@H]3c3cc(F)cc(F)c3)ncn2)c(OC)cc1N1CCC(N2CCC(N(C)C)CC2)CC1` ?
Result: < 0.05 µM

Request: Likewise for `C=CC(=O)Nc1cc(Nc2cc(N3OCC[C@@H]3c3cc(F)cc(F)c3)ncn2)c(OC)cc1N1CCC(N2CCN(C(C)=O)CC2)CC1` ?
Result: < 0.05 µM

Request: Likewise for `C=CC(=O)Nc1cc(Nc2cc(N3OCC[C@@H]3c3cc(F)cc(F)c3)ncn2)c(OC)cc1N1CCC(N2CCOCC2)CC1` ?
Result: < 0.05 µM

Request: Likewise for `C=CC(=O)Nc1cc(Nc2cc(N3OCC[C@@H]3c3cc(F)cc(F)c3)ncn2)c(OC)cc1N1CCC(N(C)C)CC1` ?
Result: < 0.05 µM
